// provenance: patent US20240228562A1

# tested_target: T1, recombinant human CTGF-Fc protein (Creative Biomart) (human)
# T1 construct: Bought; also called human CTGF with a human IgG1 Fc Tag
# T1 sequence (chain, as listed by the source limits assumed): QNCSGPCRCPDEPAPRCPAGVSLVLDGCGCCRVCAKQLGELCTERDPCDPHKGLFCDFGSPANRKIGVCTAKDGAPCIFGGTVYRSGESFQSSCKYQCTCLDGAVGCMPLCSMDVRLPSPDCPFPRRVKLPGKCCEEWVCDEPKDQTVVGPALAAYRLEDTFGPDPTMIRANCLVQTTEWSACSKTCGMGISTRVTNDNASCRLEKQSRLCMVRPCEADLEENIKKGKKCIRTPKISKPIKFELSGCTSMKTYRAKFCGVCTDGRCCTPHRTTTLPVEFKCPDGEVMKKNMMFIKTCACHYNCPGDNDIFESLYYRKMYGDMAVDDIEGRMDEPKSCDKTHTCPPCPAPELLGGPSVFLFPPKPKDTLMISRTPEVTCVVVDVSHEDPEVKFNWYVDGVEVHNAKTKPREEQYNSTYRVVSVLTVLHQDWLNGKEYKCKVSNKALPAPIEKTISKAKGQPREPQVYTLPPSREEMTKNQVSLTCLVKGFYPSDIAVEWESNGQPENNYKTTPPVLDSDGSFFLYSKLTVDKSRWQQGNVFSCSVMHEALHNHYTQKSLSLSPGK
# test_details: SPR (Biacore)
reported_property: kon (M⁻¹ s⁻¹)
Unit M⁻¹ s⁻¹ implied. Number only.

lipocalin mutein of SEQ ID NO: 29 (designed binder, Parent hNGAL mutein; also called hNGAL mutein) QDSTSDLIPAPPLSKVPLQQNFQDNQFHGKWYVVGWAGNIKLREDKDPFKMSATIYELKEDKSYNVTEVVFEQKKCHYIIKTFVPGSQPGEFTLGDIKSPPGETSSLVRVVSTNYNQHAMVFFKKVFQNREFFWITLYGRTKELTSELKENFIRFSKSLGLPENHIVFPVPIDQCIDGSAWSHPQFEK
100000

Now, please, on to the next binder.
Would you mind telling me what kon value was observed for lipocalin mutein of SEQ ID NO: 35 (designed binder, also called hNGAL mutein; not shown: C-terminal His-tag) QDSTSDLIPAPPLSKVPLQQNFQDNQFQGKWYVVGWAGNVKLREDKQPLKMSATIYELKEDKSYDVTEVVFEQKKCHYIIKTFVPGSQPGEFTAGDIKSPPGYTSSLVRVVSTNYNQHAMVFFKKVSQNREFFWITLYGRTKELTSELKENFIRFSKSLGLPENHIVFPVPIDQCIDG ?
108000
